# System: OVCAR-8 ovarian
# test: NCI tumour cell line growth inhibition, 48 h
Reported TGI values are given for each entry in this list.

Examples with their reported TGI follow.
{"columns": ["compound", "measuredMetric", "result"],
 "data": [
  ["CSc1nc2c(nc(N)n2C2OCC(O)C(O)C2O)c(=O)[nH]1 (stereo unspecified)", "TGI", "> 100 µM"],
  ["CCN(CC)c1ccc(/C=C/C(=O)c2cccc(NS(C)(=O)=O)c2)cc1", "TGI", "> 100 µM"],
  ["Cn1c2ccccc2c2cc(-c3ccccc3)c3c(c21)C(=O)C=CC3=O", "TGI", "78.3 µM"],
  ["Cc1nnc(N)nc1/C=C\\c1cccs1", "TGI", "44.5 µM"]
]}

input: Entry "O=C(/C=C/c1cccs1)c1ccsc1" has what TGI?
output: 96.5 µM

input: Entry "Cc1cc[c-]cc1.Fc1c[c-]c(-c2ccccn2)c(F)c1.N#CCC[PH+](CCC#N)c1ccccc1.[Pt+2]" has what TGI?
output: > 100 µM

----------
# System: HCC-2998 colon
# test: NCI tumour cell line growth inhibition, 48 h
measuredMetric: GI50

{"columns": ["chemicalStructure", "testedOn", "GI50"],
 "data": [
  ["COC(=O)Nc1nc2c(OC)c(OC)c(OC)cc2[nH]1", "HCC-2998 colon", "55.6 µM"],
  ["C[C@@H]1CN(Cc2ccc(/C=C/c3n[nH]c4ccc5nc(-c6cn[nH]c6C(F)(F)F)c6c(c5c34)CCCC6)cc2)C[C@H](C)O1", "HCC-2998 colon", "2.57 µM"],
  ["O=C(Cc1ccc(/C=C/C(=O)c2ncc[nH]2)cc1)Nc1ccc(Br)cc1", "HCC-2998 colon", "2.46 µM"],
  ["CCN(CC)c1ccc(/C=C/C(=O)c2cccc(NS(C)(=O)=O)c2)cc1", "HCC-2998 colon", "> 100 µM"]
]}

Turning to the following compound.
input: Entry "Cc1cc(N(CCCNc2ccnc3cc(Cl)ccc23)Cc2cccs2)nc(Cl)n1" has what GI50?
output: 4.05 µM

----------
# Test system: NCI-H23 lung
# test: NCI tumour cell line growth inhibition, 48 h
Reported TGI values are given for each entry in this list.

Examples with their reported TGI follow.
{"columns": ["compound", "testedOn", "TGI"],
 "data": [
  ["COc1ccc(N2CCN(CC(=O)N3CCN(c4nnc(-c5ccccc5)c(-c5ccccc5)n4)CC3)CC2)cc1", "NCI-H23 lung", "> 100 µM"],
  ["c1ccc([C@H]2CN3CCSC3=N2)cc1", "NCI-H23 lung", "> 100 µM"],
  ["CC(=O)c1ccc(NC(=O)/C(=N\\NC(N)=O)C(C#N)CC(C)(C)C=O)cc1 (stereo unspecified)", "NCI-H23 lung", "> 100 µM"],
  ["Cc1cc(C)cc(Nc2nccc(-c3c(-c4ccc(F)cc4)ncn3C3CCNCC3)n2)c1", "NCI-H23 lung", "4.21 µM"],
  ["CCC[CH2][Sn]1([CH2]CCC)[O]C(=O)C[S]1", "NCI-H23 lung", "2.64 µM"]
]}

input: Entry "CC1=CC(=O)c2cccc(NC3=NCCO3)c21" has what TGI?
output: > 100 µM

----------
# Test system: HCT-15 colon
# test: NCI tumour cell line growth inhibition, 48 h
measuredMetric: TGI

Examples with their reported TGI follow.
{"columns": ["compound", "TGI"],
 "data": [
  ["O=C(NCCO)c1c(O)c2ccccc2[nH]c1=O", "> 100 µM"],
  ["COc1ccc(N2CCN(c3ccc4c(c3)NCC(=O)N4)CC2)cc1", "> 100 µM"],
  ["CN(C)CCCNC(=O)c1cc2c3ccccc3[nH]c2c2ncccc12", "58.5 µM"],
  ["CC1=CC(=O)c2cccc(NC3=NCCO3)c21", "> 100 µM"],
  ["O=C(NN=C1CCCCC1)Nc1ccccc1Cl", "> 100 µM"],
  ["COc1cc(C/C=C/c2ccccc2)c(OC)cc1O", "37.2 µM"]
]}

input: Entry "O=C([C@H](O)[C@@H](O)c1ccc(Br)cc1)C12CC3CC(CC(C3)C1)C2" has what TGI?
output: > 75 µM

input: Entry "CC(C)[C@@H](C(=O)O[C@@H]1/C=C/C(=O)O[C@@H](C)CCC/C=C/[C@@H]2C[C@H](O)C[C@H]21)[N+](C)(C)C" has what TGI?
output: > 100 µM

input: Entry CC1NOC(NS(=O)(=O)c2ccc(N=Nc3c(O)c(C(=O)O)cc4ccccc34)cc2)C1C (stereo unspecified) has what TGI?
output: > 100 µM

input: Entry "O=C1c2c(c3c4ccccc4n4c3c3c2c2ccccc2n3C/C=C\C4)C(=O)N1Cc1ccccc1" has what TGI?
output: > 100 µM

input: Entry "N=C1N=C(N)c2cc3c(cc21)SCCSCCCSCCS3" has what TGI?
output: 32.3 µM

All values here come from PubChem BioAssay (NCI).
